These data points were gathered from paper PMC4080824.

target: the molecule itself; experiment: FRET or BRET; mutant series; 0.2 mg/ml protein, 4 μM Atto550–Ni-NTA and 4 μM Atto647N–Ni-NTA on the His6 tag, 10 mM NaH2PO4/Na2HPO4, 100 mM NaCl pH 7.4; heat-induced polymerization at 60°C; time to half-maximal signal
recorded endpoint: polymerization half-time (t0.5) (s)
Quick reminder: number only, in s, skip the unit.

Known results for proteins:
INSERT INTO assay_data (protein, recorded_endpoint, measured_number) VALUES
  ('α1-antitrypsin C232S S292C/T339C (292–339) (natural protein, disulfide bond between C292 and C339 (predominantly in the disulfide-bonded form, >90%); reduced where treated with 100 mM 2-mercaptoethanol, α1-antitrypsin, wild-type (M) ORF on the C232S background; Same construct as m3 with the stated changes; source: E. coli SG13009/pREP4 (pQE-30) or BL21(DE3) (pQE-81L), purified; not shown: His6, N-terminal, kept) DPQGDAAQKTDTSHHDQDHPTFNKITPNLAEFAFSLYRQLAHQSNSTNIFFSPVSIATAFAMLSLGTKADTHDEILEGLNFNLTEIPEAQIHEGFQELLRTLNQPDSQLQLTTGNGLFLSEGLKLVDKFLEDVKKLYHSEAFTVNFGDTEEAKKQINDYVEKGTQGKIVDLVKELDRDTVFALVNYIFFKGKWERPFEVKDTEEEDFHVDQVTTVKVPMMKRLGMFNIQHSKKLSSWVLLMKYLGNATAIFFLPDEGKLQHLENELTHDIITKFLENEDRRSASLHLPKLCITGTYDLKSVLGQLGITKVFSNGADLSGVTEEAPLKLSKAVHKAVLCIDEKGTEAAGAMFLEAIPMSIPPEVKFNKPFVFLMIEQNTKSPLFMGKVVNPTQK', 'polymerization half-time (t0.5)', 307),
  ('α1-antitrypsin C232S S283C/P361C (283–361) (natural protein, disulfide bond between C283 and C361 (predominantly in the disulfide-bonded form, >90%); reduced where treated with 100 mM 2-mercaptoethanol, α1-antitrypsin, wild-type (M) ORF on the C232S background; Same construct as m3 with the stated changes; source: E. coli SG13009/pREP4 (pQE-30) or BL21(DE3) (pQE-81L), purified; not shown: His6, N-terminal, kept) DPQGDAAQKTDTSHHDQDHPTFNKITPNLAEFAFSLYRQLAHQSNSTNIFFSPVSIATAFAMLSLGTKADTHDEILEGLNFNLTEIPEAQIHEGFQELLRTLNQPDSQLQLTTGNGLFLSEGLKLVDKFLEDVKKLYHSEAFTVNFGDTEEAKKQINDYVEKGTQGKIVDLVKELDRDTVFALVNYIFFKGKWERPFEVKDTEEEDFHVDQVTTVKVPMMKRLGMFNIQHSKKLSSWVLLMKYLGNATAIFFLPDEGKLQHLENELTHDIITKFLENEDRRCASLHLPKLSITGTYDLKSVLGQLGITKVFSNGADLSGVTEEAPLKLSKAVHKAVLTIDEKGTEAAGAMFLEAIPMSICPEVKFNKPFVFLMIEQNTKSPLFMGKVVNPTQK', 'polymerization half-time (t0.5)', 1430),
  ('α1-antitrypsin C232S K168C/F189C (168–189) (natural protein, disulfide bond between C168 and C189 (predominantly in the disulfide-bonded form, >90%); reduced where treated with 100 mM 2-mercaptoethanol, α1-antitrypsin, wild-type (M) ORF on the C232S background; Same construct as m3 with the stated changes; source: E. coli SG13009/pREP4 (pQE-30) or BL21(DE3) (pQE-81L), purified; not shown: His6, N-terminal, kept) DPQGDAAQKTDTSHHDQDHPTFNKITPNLAEFAFSLYRQLAHQSNSTNIFFSPVSIATAFAMLSLGTKADTHDEILEGLNFNLTEIPEAQIHEGFQELLRTLNQPDSQLQLTTGNGLFLSEGLKLVDKFLEDVKKLYHSEAFTVNFGDTEEAKKQINDYVEKGTQGCIVDLVKELDRDTVFALVNYICFKGKWERPFEVKDTEEEDFHVDQVTTVKVPMMKRLGMFNIQHSKKLSSWVLLMKYLGNATAIFFLPDEGKLQHLENELTHDIITKFLENEDRRSASLHLPKLSITGTYDLKSVLGQLGITKVFSNGADLSGVTEEAPLKLSKAVHKAVLTIDEKGTEAAGAMFLEAIPMSIPPEVKFNKPFVFLMIEQNTKSPLFMGKVVNPTQK', 'polymerization half-time (t0.5)', 8870);

Now for another entry.
Exercise: Returns the measured polymerization half-time (t0.5) for the input protein. Input: α1-antitrypsin C232S E162C/V170C (162–170) (natural protein, disulfide bond between C162 and C170 (predominantly in the disulfide-bonded form, >90%); reduced where treated with 100 mM 2-mercaptoethanol, α1-antitrypsin, wild-type (M) ORF on the C232S background; Same construct as m3 with the stated changes; source: E. coli SG13009/pREP4 (pQE-30) or BL21(DE3) (pQE-81L), purified; not shown: His6, N-terminal, kept) DPQGDAAQKTDTSHHDQDHPTFNKITPNLAEFAFSLYRQLAHQSNSTNIFFSPVSIATAFAMLSLGTKADTHDEILEGLNFNLTEIPEAQIHEGFQELLRTLNQPDSQLQLTTGNGLFLSEGLKLVDKFLEDVKKLYHSEAFTVNFGDTEEAKKQINDYVCKGTQGKICDLVKELDRDTVFALVNYIFFKGKWERPFEVKDTEEEDFHVDQVTTVKVPMMKRLGMFNIQHSKKLSSWVLLMKYLGNATAIFFLPDEGKLQHLENELTHDIITKFLENEDRRSASLHLPKLSITGTYDLKSVLGQLGITKVFSNGADLSGVTEEAPLKLSKAVHKAVLTIDEKGTEAAGAMFLEAIPMSIPPEVKFNKPFVFLMIEQNTKSPLFMGKVVNPTQK
Key: 941
